# ASSAYED SYSTEM: cynomolgus monkey DLL4 extracellular domain (cynomolgus monkey)
# PROCEDURE SUMMARY: Biacore SPR; head says nM, kd/ka gives M
// values below are reported pKd
The meaning of pKd here: minus log10 of the concentration in molar units.

>>> result_value("h1A11.G3 (antibody, V domains shown) VH: EVQLVESGGGLVQPGGSLRLSCAASGFTFRYFPMSWVRQAPGKGLEWVASISGSDGWASYRDSVKGRFTISRDNAKNSLYLQMNSLRAEDTAVYYCARGYYNSPFAYWGQGTLVTVSS VL: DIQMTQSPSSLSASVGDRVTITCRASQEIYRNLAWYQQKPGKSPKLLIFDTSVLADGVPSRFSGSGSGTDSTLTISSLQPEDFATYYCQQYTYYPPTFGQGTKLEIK")
9.77
>>> result_value("h1A11.E12 (antibody, V domains shown) VH: EVQLVESGGGLVQPGGSLRLSCAASGFTFRYFPMAWVRQAPGKGLEWVATISGSDEWPNYRDSVKGRFTISRDNAKNSLYLQMNSLRAEDTAVYYCARGYYNSPFAFWGQGTLVTVSS VL: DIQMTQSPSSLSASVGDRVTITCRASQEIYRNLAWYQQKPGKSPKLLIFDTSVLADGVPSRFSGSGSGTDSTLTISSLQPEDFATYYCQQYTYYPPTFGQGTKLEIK")
9.55

Now for another entry.
Specify reported pKd for the binder shown: h1A11.A12 (antibody, V domains shown) VH: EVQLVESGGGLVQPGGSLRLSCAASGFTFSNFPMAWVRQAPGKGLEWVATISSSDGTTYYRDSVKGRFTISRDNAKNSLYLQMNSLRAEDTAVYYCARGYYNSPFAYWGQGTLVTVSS VL: DIQMTQSPSSLSASVGDRVTITCRASQDIYYNLAWYQQKPGKSPKLLIFDTSSLADGVPSRFSGSGSGTDFTLTISSLQPEDFATYFCQQYDWYPPTFGQGTKLEIK
8.00
